// provenance: patent US8445674B2

# TEST SYSTEM: human chemokine receptor 2 isoform B (Homo sapiens)
# ASSAY SUMMARY: Calcium mobilization assay (FLIPR, antagonist activity against MCP-1)
# PROTOCOL CONDITIONS: Ca mobilisation assay, CHOK1-CCR2B-A5 cells, inhibition of calcium increase induced by 20 nM MCP-1
OBSERVABLE: pIC50
By convention, pIC50 is the negative base-10 log of a molar concentration.

Known pIC50 results, listed for orientation:
O=C(/C=C/c1ccc(Cl)c(Cl)c1)N1CCC(=O)N(CCC(=O)N2CCC(c3cc[nH]n3)CC2)CC1 [Example 91] | 6.84
COC[C@H](CCC(=O)N1CCC2(CC2)[C@H](O)C1)N1CCN(C(=O)Nc2ccc(C(F)(F)F)c(Cl)c2)[C@@H](C)C1=O [Example 139] | 6.82
C[C@H]1C(=O)N(CCCC(=O)N2CCC3(CC2)CNC(=O)O3)CCN1C(=O)Nc1cccc(Cl)c1 [Example 107] | 5.31
C[C@H]1C(=O)N(CCCC(=O)N2CCC3(CC2)COC3)CCN1C(=O)Nc1cccc(Cl)c1 [Example 36] | 5.63
COC(=O)[C@H](CCC(=O)N1CCC2(CC2)[C@H](O)C1)N1CC(C)N(c2ccc(C(F)(F)F)c(C(F)(F)F)c2)CCC1=O (some centres unmarked) [Example 127] | 6.72

What pIC50 value was documented for this molecule, C[C@H]1C(=O)N([C@H](CO)CCC(=O)N2CCC3(CC3)[C@H](O)C2)CCN1C(=O)Nc1ccc(C(F)(F)F)c(C(F)(F)F)c1 [Example 144] ?
8.35

What pIC50 value was documented for this molecule, C[C@@H]1CN(CCCC(=O)N2CCC3(CC3)[C@H](O)C2)C(=O)CCN1c1ccc(Cl)c(C(F)(F)F)c1 [Example 126] ?
5.57

What pIC50 value was documented for this molecule, O=C1CCN(C(=O)Nc2ccc(C(F)(F)F)c(Cl)c2)CCN1CCCC(=O)N1CCC2(CC2)[C@H](O)C1 [Example 119] ?
7.75

What pIC50 value was documented for this molecule, C[C@H]1C(=O)N(CCC(O)C(=O)N2CCC3(CC3)[C@H](O)C2)CCN1C(=O)Nc1ccc(C(F)(F)F)c(Cl)c1 (some centres unmarked) [Example 133] ?
6.87

What pIC50 value was documented for this molecule, C[C@H]1C(=O)N(CCC(=O)N2CCCCC2)CCN1C(=O)Nc1ccc(Cl)c(Cl)c1 [Example 16] ?
5.39

* * *

# TEST SYSTEM: human chemokine receptor 2 isoform B (Homo sapiens, UniProt P41597)
# Sequence (P41597 1-360 isoform P41597-2): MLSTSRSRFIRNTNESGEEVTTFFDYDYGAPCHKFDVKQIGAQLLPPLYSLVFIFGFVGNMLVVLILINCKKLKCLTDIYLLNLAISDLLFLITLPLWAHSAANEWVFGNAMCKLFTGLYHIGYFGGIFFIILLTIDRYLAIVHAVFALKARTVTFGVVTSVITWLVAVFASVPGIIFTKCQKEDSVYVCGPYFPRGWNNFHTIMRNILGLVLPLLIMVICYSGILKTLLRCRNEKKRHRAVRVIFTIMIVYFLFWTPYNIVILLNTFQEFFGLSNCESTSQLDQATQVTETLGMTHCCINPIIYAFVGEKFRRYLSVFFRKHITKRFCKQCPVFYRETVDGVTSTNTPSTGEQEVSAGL
# ASSAY SUMMARY: Calcium mobilization assay (FLIPR, antagonist activity against MCP-1)
# PROTOCOL CONDITIONS: Ca mobilisation assay, CHOK1-CCR2B-A5 cells, inhibition of calcium increase induced by 20 nM MCP-1
# Experimental: Calcium Mobilization Assay […] Test compounds were added to the assay plate and agonist activity was monitored as fluorescence for 80 seconds with a FLIPR (488 nm excitation; 510-570 nm emission; Molecular Devices). After 20-30 min. of incubation at 30° C., 20 nM MCP-1 (R&D; Roche) was added and fluorescence was monitored again for 80 seconds. Increases in intracellular calcium are reported as maximum fluorescence after agonist exposure minus basal fluorescence before exposure. […]
OBSERVABLE: pIC50
By convention, pIC50 is the negative base-10 log of a molar concentration.

Known pIC50 results, listed for orientation:
O=C(/C=C/c1ccc(Cl)c(Cl)c1)N1CCC(=O)N(CCC(=O)N2CC[C@H](O)[C@H](O)C2)CC1 (racemic) | 5.71
C[C@H]1C(=O)N(CCC(F)C(=O)N2CCC3(CC3)[C@H](O)C2)CCN1C(=O)Nc1ccc(C(F)(F)F)c(Cl)c1 (single isomer, unassigned) [Example 138] | 8.85

Moving on to the next compound.
What pIC50 value was documented for this compound, C[C@@H]1CN(CCCC(=O)N2CCC3(CC3)[C@H](O)C2)C(=O)C=CN1c1ccc(Cl)c(C(F)(F)F)c1 ?
5.56
